// provenance: PubChem BioAssay AID651820

assay: qHTS Assay for Inhibitors of Hepatitis C Virus (HCV); settings: Huh7.5.1 HCVcc-Cre infection, luciferase reporter, 44 h; series mostly up to 41.8 µM
Out of some 340,000 compounds screened, about 12,000 (3.5%) were called active. About 18% were inconclusive and are not listed. Calls follow the shape of the dose curve; as a rule, active = well fitted inhibition curve with a large enough effect; inconclusive = small, poorly fitted or top-dose-only effect, or another doubt; inactive = no such curve, though single readings can be large or run the other way. The sample as a whole holds a higher share of actives than the screen did.
Labels: active, inactive

INSERT INTO measurements (compound, label) VALUES
  ('OCCCNc1nccc(-c2cc(Nc3cccc(Cl)c3)ncn2)n1', 'active'),
  ('Nc1cc(=O)n(Cc2ccccc2)c(=O)n1Cc1ccccc1', 'inactive'),
  ('CCCn1c2ccccc2c2cnn(CC(=O)NCCCN3CCCCC3CC)c(=O)c21 (stereo unspecified)', 'active'),
  ('CCC1CCCCN1CCCNC(=O)Cn1nc(-c2ccccc2)ccc1=O (stereo unspecified)', 'inactive'),
  ('COc1ccc(OC)c(-c2csc(NC(=O)COC(=O)C3CC3)n2)c1', 'active'),
  ('COc1ccc(CCNC(=O)COC(=O)C2CCCCC2)cc1', 'inactive'),
  ('CC1CCCCN1CCCNC(=O)Cn1ncc2c([nH]c3ccccc32)c1=O (stereo unspecified)', 'inactive'),
  ('COc1cccc(NC(=O)COc2cccnc2[N+](=O)[O-])c1', 'inactive'),
  ('CN1CCN(c2nc(Nc3ccc(O)cc3)nc3ccccc23)CC1', 'inactive'),
  ('CCC1(C)COC(c2ccc(OC)c(OC)c2)OC1 (stereo unspecified)', 'inactive'),
  ('CC(C)Cc1nnc(N)s1', 'inactive'),
  ('O=C(Nc1cccc(Br)c1)C1CC(=O)N(C2CCCC2)C1 (stereo unspecified)', 'inactive'),
  ('O=c1[nH]c(N2CCOCC2)nc2ccccc12', 'inactive'),
  ('Cc1nn(C)cc1/C=N/NC(=O)c1sc2ccccc2c1Cl', 'inactive'),
  ('c1ccc(Nc2nc(N3CCOCC3)c3ccccc3n2)cc1', 'active'),
  ('Cc1ccc(S(=O)(=O)CCC(=O)OCC(=O)N(C)Cc2ccccc2)cc1', 'inactive'),
  ('COc1ccccc1OCc1nnc(SCC(N)=O)n1-c1ccccc1', 'inactive'),
  ('O=C1NC(c2ccccc2)Cc2ccncc21 (stereo unspecified)', 'inactive'),
  ('COc1cccc(NC(=O)COC(=O)c2ccc3ccccc3n2)c1', 'inactive'),
  ('CC[C@@H](C)[C@@H]1CN([C@@H](C)CN2CCC[C@H]2CN2C(N)=NC[C@H]2C(C)C)C(=N)N1CCc1ccc(Cl)c(Cl)c1', 'inactive'),
  ('COc1ccccc1C(=O)NCCC(=O)NC1=NCCS1', 'inactive'),
  ('CCOC(=O)c1cc(-c2ccccc2C)n(Cc2cc(C)no2)n1', 'inactive'),
  ('Cc1c(C)n2c(SCC(=O)N3CCCC3)nnc2[nH]c1=O', 'inactive'),
  ('COc1ccc(C(=O)NC2=NCCS2)c(OC)c1', 'inactive'),
  ('COc1ccc(C(=O)COC(=O)CN2C(=O)C3CC=CCC3C2=O)c(OC)c1 (stereo unspecified)', 'inactive'),
  ('COc1cccc(NC(=O)c2ccc(Cn3cc([N+](=O)[O-])cn3)o2)c1', 'inactive'),
  ('O=C(NCCc1ccc(F)cc1)c1ccc(S(=O)(=O)N2CCCCC2)cc1', 'inactive'),
  ('O=c1c2c(nc3n1CCCCC3)sc1c(O)cccc12', 'inactive'),
  ('COc1ccccc1NC(=O)CSc1nnc(Cn2nnc(-c3ccccc3)n2)n1-c1ccccc1', 'active'),
  ('COc1ccc(-c2ccc(CNCCCN3CCOCC3)o2)cc1Cl', 'active'),
  ('O=C1C2C3C=CC(C3)C2C(=O)N1c1ncc([N+](=O)[O-])s1 (stereo unspecified)', 'inactive'),
  ('Cn1nnnc1SCC(=O)Nc1nc2ccccc2s1', 'inactive'),
  ('O=C(COC(=O)CSc1ccccc1)Nc1ccc(F)cc1F', 'inactive'),
  ('CCc1ccc2oc(-c3ccc(N)cc3)nc2c1', 'active'),
  ('Cn1c(Nc2cccc(Cl)c2)nc2ccccc21', 'inactive'),
  ('C#CCOCCOCCOCCNc1nc(N2CCOCC2)nc(N2CCN(C(=O)[C@H](Cc3ccc(O)cc3)n3cc(CCO)nn3)CC2)n1', 'inactive'),
  ('C#CC(C)(C)NC(=O)CSc1nc2c(c(=O)n(C)c(=O)n2C)n1CCCC', 'inactive'),
  ('O=C(N/N=C/c1c(Cl)[nH]c2ccccc12)c1sc2ccccc2c1Cl', 'active'),
  ('CCCN(CC1CC1)C(=S)NC(=O)c1ccccc1Br', 'inactive'),
  ('COC1C(CO)OC(n2cnc3c(=S)nc(N)[nH]c32)C1O (stereo unspecified)', 'inactive'),
  ('CC(C=Cc1ccccc1)=NNS(=O)(=O)c1ccc([N+](=O)[O-])cc1', 'inactive'),
  ('COc1ccc(OC)c(NC(=O)c2sc3nc(C)cc(C)c3c2N)c1', 'inactive'),
  ('CN(C)C(=O)CCc1ccc2c3c([nH]c2c1)[C@]1(C)[C@@H](C(=O)N2CCOCC2)C[C@H](CC(=O)NCCc2ccccn2)C(=O)N1CC3', 'inactive'),
  ('CC1(C)Cc2ccccc2/C(=C/C(=O)c2ccccc2)N1', 'active'),
  ('NS(=O)(=O)c1cccnc1Nc1cccc(Cl)c1', 'inactive'),
  ('CN1CCOC1c1ccc(C2OCCN2C)cc1 (stereo unspecified)', 'inactive');
